Species: Rattus norvegicus
Assay: Inhibition of rat recombinant geranylgeranyltransferase type I expressed in Escherichia coli assessed as residual enzyme activity for geranylgeranylation of K-Ras4B at 50 uM incubated for 30 mins in presence of [3H]GGPP by scintillation counting assay relative to control
MEASUREMENT_LABEL: Activity (%)

CCc1ccc([C@@H]2CC=C(C(=O)O)[C@H](c3ccc(C)cc3)N2S(=O)(=O)c2ccc(C)cc2)cc1 : 87
COc1ccc([C@@H]2CC=C(C(=O)O)[C@H](c3ccc(Cl)cc3)N2S(=O)(=O)c2ccc(Cl)cc2)cc1 : 72.6
Cc1ccc(S(=O)(=O)N2C[C@@H](C(=O)O)[C@H](SCC(C)C)C[C@H]2c2ccc3c(c2)OCO3)cc1 : 81.7
Cc1ccc(S(=O)(=O)N2[C@@H](c3ccc(Cl)cc3)C(C(=O)O)=CC[C@H]2c2cccc(C)c2)cc1 : 74.7
CCCCCS[C@@H]1C[C@@H](c2ccc(C)cc2)N(S(=O)(=O)c2ccccc2C)C[C@H]1C(=O)O : 62.9
Cc1ccccc1S(=O)(=O)N1C[C@@H](C(=O)O)[C@H](SCC(C)C)C[C@H]1c1ccc(Cl)cc1 : 76.1
COc1ccc(S[C@@H]2C[C@@H](c3ccc(C)cc3)N(S(=O)(=O)c3ccc(Cl)cc3)C[C@H]2C(=O)O)cc1 : 82.7
Cc1ccc(S(=O)(=O)N2[C@@H](c3cccc(C)c3)C(C(=O)O)=CC[C@H]2c2ccc(C#N)cc2)cc1 : 66.7
COc1ccc([C@@H]2CC=C(C(=O)O)[C@H](c3ccc(C)cc3)N2S(=O)(=O)c2ccccc2)cc1 : 88.2
Cc1ccc(S[C@@H]2C[C@@H](c3ccc(C)cc3)N(S(=O)(=O)c3ccc(C)cc3)C[C@H]2C(=O)O)cc1 : 62.4
COc1ccc([C@@H]2C[C@@H](SCCC(C)C)[C@H](C(=O)O)CN2S(=O)(=O)c2ccc(C)cc2)cc1OC : 91.1
